Cited source: patent US20190040149A1

- assayed_system: T1, murine PD-1 on CHO cells (mouse, UniProt Q02242 25-288)
- T1 sequence: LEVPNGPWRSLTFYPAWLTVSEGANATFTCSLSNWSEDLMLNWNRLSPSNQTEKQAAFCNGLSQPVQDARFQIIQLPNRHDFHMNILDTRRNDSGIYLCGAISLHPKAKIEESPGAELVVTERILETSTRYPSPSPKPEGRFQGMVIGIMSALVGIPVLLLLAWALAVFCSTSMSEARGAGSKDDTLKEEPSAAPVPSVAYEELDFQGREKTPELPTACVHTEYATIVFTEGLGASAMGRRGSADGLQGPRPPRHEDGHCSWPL
- experimental_details: flow cytometry on CHO cells with murine PD-1
The threshold is 6 nM. Values of EC50 beneath it are tagged 1 (yes); values meeting or exceeding it are tagged 0 (no).

binder: Antibody E, IgG1 format expressed in yeast (antibody, V domains shown, Tested in IgG1 format, expressed in yeast) VH: QVQLVQSGAEVKKPGASVKVSCKASGYTFTSNYMHWVRQAPGQGLEWMGIINPSEGSTGYAQKFQGRVTMTRDTSTSTVYMELSSLRSEDTAVYYCAKEGVADGYGLVDVWGQGTMVTVSS VL: EIVLTQSPATLSLSPGERATLSCRASQSVSSYLAWYQQKPGQAPRLLIYDASKRATGIPARFSGSGSGTDFTLTISSLEPEDFAVYYCDQRNNWPLTFGGGTKVEIK
class_name: 1 (yes)
--
binder: Antibody D, IgG1 format expressed in yeast (antibody, V domains shown, Tested in IgG1 format, expressed in yeast) VH: QVQLVQSGAEVKKPGASVKVSCKASGYTFEKYYMHWVRQAPGQGLEWMGIINPDGGSTGYAQKFQGRVTMTRDTSTSTVYMELSSLRSEDTAVYYCAKEGVADGYGLVDVWGQGTMVTVSS VL: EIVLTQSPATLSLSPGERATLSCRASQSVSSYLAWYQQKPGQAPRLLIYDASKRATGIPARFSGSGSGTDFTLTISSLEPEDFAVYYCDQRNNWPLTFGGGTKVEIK
class_name: 0 (no)
--
binder: Antibody A, IgG1 format expressed in yeast (antibody, V domains shown, Tested in IgG1 format, expressed in yeast) VH: QVQLVQSGAEVKKPGASVKVSCKASGYTFTSYYMHWVRQAPGQGLEWMGIINPSGGSTSYAQKFQGRVTMTRDTSTSTVYMELSSLRSEDTAVYYCAKEGVADGYGLVDVWGQGTMVTISS VL: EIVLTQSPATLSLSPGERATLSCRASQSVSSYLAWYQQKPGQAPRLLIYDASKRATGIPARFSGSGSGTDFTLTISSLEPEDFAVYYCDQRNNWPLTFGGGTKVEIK
class_name: 0 (no)
--
binder: Antibody C, IgG1 format expressed in yeast (antibody, V domains shown, Tested in IgG1 format, expressed in yeast) VH: QVQLVQSGAEVKKPGASVKVSCKASGYTFTAQYMHWVRQAPGQGLEWMGIINPSGGETGYAQKFQGRVTMTRDTSTSTVYMELSSLRSEDTAVYYCAKEGVADGYGLVDVWGQGTMVTVSS VL: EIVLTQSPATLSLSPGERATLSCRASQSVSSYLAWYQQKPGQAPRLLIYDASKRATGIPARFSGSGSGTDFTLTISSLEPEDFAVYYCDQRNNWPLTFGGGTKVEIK
class_name: 1 (yes)
